Cited source for all entries: patent US20220324835A1

Test system: primary human NK cells
Assay: NK cell activation assessed by cytokine secretion (coculture with K562 NucRed target cells)
Type: cell-based
Conditions: K562, NK cells cocultured with K562 NucRed, 1:1 E/T, 2.5 μM compound, read-out: IFNγ secretion, fold change over baseline
readout-kind: fold induction at 2.5 µM

Here are 5 molecules together with their reported answers.
>>> result("Cn1cnnc1[C@@H]1C[C@@H]1c1cccc(N2Cc3c(cccc3C(F)(F)F)C2=O)c1")
"1.01 to 2"
>>> result("COC1CN(Cc2cc3c(c(C(F)(F)F)c2)CN(c2cccc([C@@](C)(F)C(F)(F)c4nncn4C)c2)C3=O)C1")
"> 5"
>>> result("C[C@H](Cc1nncn1C)c1cccc(NC(=O)c2n[nH]c3c2CCC3)c1")
"1.01 to 2"
>>> result("C[C@H](Cc1nncn1C)c1cccc(NC(=O)c2cc3cc(N4CCNCC4)ccc3cn2)c1")
"1.01 to 2"
>>> result("C[C@@H](c1cc2c(c(C(F)(F)F)c1)CN(c1cccc(C3(Cc4nncn4C)COC3)c1)C2=O)N1CC[C@H](F)C1")
"2.01 to 5"

With those in mind, consider the next molecule.
Which measured fold induction at 2.5 µM value corresponds to `Cn1cnnc1C(F)(F)[C@](C)(F)c1cccc(N2Cc3c(cc(CN4CC[C@@H](C#N)C4)cc3C(F)(F)F)C2=O)c1` ?
> 5

* * *

Molecular target: Cbl-b (Homo sapiens, UniProt Q13191)
Sequence (Q13191 36-427): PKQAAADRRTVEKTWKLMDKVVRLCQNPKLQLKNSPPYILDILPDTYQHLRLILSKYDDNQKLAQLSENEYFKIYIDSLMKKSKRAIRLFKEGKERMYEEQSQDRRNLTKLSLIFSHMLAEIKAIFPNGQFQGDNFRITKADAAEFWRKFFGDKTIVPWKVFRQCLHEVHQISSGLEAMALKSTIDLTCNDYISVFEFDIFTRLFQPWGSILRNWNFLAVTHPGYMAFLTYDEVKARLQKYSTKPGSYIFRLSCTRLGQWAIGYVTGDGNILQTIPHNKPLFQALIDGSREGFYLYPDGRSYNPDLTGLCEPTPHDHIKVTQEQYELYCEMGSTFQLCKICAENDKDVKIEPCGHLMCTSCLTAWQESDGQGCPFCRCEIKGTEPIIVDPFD
Test: Cbl-b inhibition assay (Cbl-b activity assay, FRET, Biological Example 1; 100 mM NaCl, 60 nM Src kinase)
Format: biochemical
Details: upper bound stated in text lists; read-out: IC50 values in the Cbl-b inhibition assay of Biological Example 1
Entries and their IC50

>>> result("C[C@H](Sc1nncn1C)c1cccc(NC(=O)c2ccc(CO)c(C3CC3)n2)c1")
"≤ 0.1 µM"

Which measured IC50 value corresponds to Cn1cnnc1[C@@H](F)C1(c2cccc(N3Cc4c(cc(CN5C6CCCC5CC6)cc4C(F)(F)F)C3=O)c2)COC1 [Example 675a] ?
≤ 0.1 µM

Moving on to `C[C@H](Cc1nncn1C)c1cccc(NC(=O)c2cc(C(=O)N3CC[C@H](O)C3)cc(C(F)(F)F)n2)c1`
≤ 0.1 µM

Moving on to Cn1cnnc1CC1(c2cccc(N3Cc4c(cc(C5CN6CCC5CC6)cc4C(F)(F)F)C3=O)c2)COC1 (centres unmarked)
≤ 0.1 µM

Moving on to `COC1CN(Cc2cc3c(c(C(F)(F)F)c2)CN(c2cccc([C@@](C)(F)C(F)(F)c4nncn4C)c2)C3=O)C1`
≤ 0.1 µM

Moving on to `Cc1ccc(C(=O)Nc2cccc([C@H](C)Sc3nncn3C)c2)nc1C`
≤ 1 µM

Moving on to `CNCc1ccc(C(=O)Nc2cccc([C@H](C)Cc3nncn3C)c2)nc1C1CC1`
≤ 0.3 µM

Moving on to `C[C@H](Cc1nncn1C)c1cccc(NC(=O)c2cc(C(=O)NCC(C)(C)O)ccn2)c1`
≤ 10 µM

* * *

Entries and their IC50
Target: Cbl-b (Homo sapiens, UniProt Q13191)
Assay: Cbl-b inhibition assay (Cbl-b activity assay, FRET, Biological Example 1; 100 mM NaCl, 60 nM Src kinase)
Assay type: biochemical
Conditions: upper bound stated in text lists; read-out: IC50 values in the Cbl-b inhibition assay of Biological Example 1

>>> result("C[C@@H]1CN(C)CCN1c1cc2c(c(C(F)(F)F)c1)CN(c1cccc([C@@](C)(F)C(F)(F)c3nncn3C)c1)C2=O")
"≤ 100 nM"
>>> result("Cn1cnnc1C(F)(F)[C@](C)(F)c1cccc(N2Cc3c(cc(CN4CCC(F)(F)C4)cc3C(F)(F)F)C2=O)c1")
"≤ 100 nM"

With those in mind, consider the next molecule.
# value lookup — system Cbl-b (Homo sapiens, UniProt Q13191), readout IC50, item `C[C@@H](c1cc2c(c(C(F)(F)F)c1)CN(c1cccc(C3(Cc4nncn4C)COC3)c1)C2=O)N1CC[C@H](F)C1`
≤ 100 nM

* * *

Target: Cbl-b (Homo sapiens)
Test: Cbl-b inhibition assay (Cbl-b activity assay, FRET, Biological Example 1; 100 mM NaCl, 60 nM Src kinase)
Type: biochemical
Conditions: upper bound stated in text lists; read-out: IC50 values in the Cbl-b inhibition assay of Biological Example 1
readout-kind: IC50

>>> result("C[C@H](Sc1nncn1C)c1ccnc(NC(=O)c2cc(N3CC[C@H](O)C3)cc(C(F)(F)F)n2)c1 [Compound 126]")
"≤ 10000 nM"
>>> result("CNC(=O)c1ccc2c(c1)C(=O)N(c1cc(C(C)Sc3nncn3C)ccn1)C2 (stereo not drawn) [Compound 173]")
"≤ 10000 nM"
>>> result("Cc1cncc(C(=O)Nc2cccc([C@H](C)Sc3nncn3C)c2)n1 [Compound 82]")
"≤ 10000 nM"
>>> result("Cn1cnnc1CC1(c2cccc(N3Cc4c(cc(CN5CCN6C(=O)CCC6C5)cc4C(F)(F)F)C3=O)c2)COC1 (stereo not drawn) [Example 711]")
"≤ 100 nM"
>>> result("C[C@H](Cc1nncn1C)c1cccc(NC(=O)c2cc(O[C@H]3CC[C@@H](O)C3)ccn2)c1 [Compound 206]")
"≤ 1000 nM"

Which measured IC50 value corresponds to C[C@H](c1cc2c(c(C(F)(F)F)c1)CN(c1cccc(C3([C@@H](F)c4nncn4C)COC3)c1)C2=O)N1CCC2(CC2)C1 (stereo in doubt) [Compound 515] ?
≤ 100 nM

Moving on to Cn1cnnc1CC1(c2cccc(N3Cc4c(cc(N5CCNC6(CC6)C5)cc4C(F)(F)F)C3=O)c2)COC1 [Example 582]
≤ 100 nM

* * *

Biological target: Cbl-b (Homo sapiens)
Experiment: Cbl-b inhibition assay (Cbl-b activity assay, FRET, Biological Example 1; 100 mM NaCl, 60 nM Src kinase)
Format: biochemical
Details: upper bound stated in text lists; read-out: IC50 values in the Cbl-b inhibition assay of Biological Example 1
readout-kind: IC50

>>> result("Cc1n[nH]c(C)c1-c1cc2c(c(C(F)(F)F)c1)CN(c1cccc([C@H](C)Cc3nncn3C)c1)C2=O")
"≤ 100 nM"
>>> result("Cc1cc(C(=O)Nc2cccc(C3(Cc4nncn4C)CCC3)c2)nc(C2CC2)n1")
"≤ 100 nM"
>>> result("C[C@H](c1cc2c(c(C(F)(F)F)c1)CN(c1cccc(C3(Cc4nncn4C)COC3)c1)C2=O)N1C[C@H]2C[C@H]2C1 [Compound 541b]")
"≤ 100 nM"
>>> result("C[C@H](Sc1nncn1C)c1cccc(NC(=O)c2cc(C(=O)N3CCC[C@@H](O)C3)ccn2)c1")
"≤ 10000 nM"

Which measured IC50 value corresponds to CC(Sc1nncn1C)c1cc(NCCO)nc(N2Cc3c(cccc3C(F)(F)F)C2=O)c1 (stereo not shown) ?
≤ 10000 nM

Moving on to `Cn1cnnc1CC1(c2cccc(N3Cc4c(cc(CN5CCOC6(CCC6)C5)cc4C(F)(F)F)C3=O)c2)COC1`
≤ 100 nM

Moving on to `Cn1cnnc1CC1(c2cccc(N3Cc4c(cc(OC5CNC5)cc4C(F)(F)F)C3=O)c2)COC1`
≤ 100 nM

* * *

Target: Cbl-b (Homo sapiens)
Experiment: Cbl-b activity assay (Cbl-b inhibition assay), TR-FRET of Cbl-b interaction with UbcH5B-Ub
Assay type: biochemical
Conditions: assay buffer with 100 mM NaCl, 60 nM Src kinase; read-out: Cbl-b activity IC50
pIC50: −log10 of the molar value.
readout-kind: pIC50

>>> result("C[C@H](Sc1nncn1C)c1cccc(NC(=O)c2ccc(F)c(C3CC3)n2)c1")
"> 7.00"
>>> result("C[C@H](Sc1nncn1C)c1ccnc(NC(=O)c2cccc(S(F)(F)(F)(F)F)c2)c1")
"5.00 to 5.52"
>>> result("Cn1cnnc1C(F)(F)[C@@](C)(F)c1cccc(N2Cc3c(cc(CN4CC[C@H](F)C4)cc3C(F)(F)F)C2=O)c1")
"6.00 to 6.52"
>>> result("Cn1cnnc1CC1(c2cccc(N3Cc4c(cc(CN5CCC6(CC6)C(F)(F)C5)cc4C(F)(F)F)C3=O)c2)COC1")
"> 7.00"
>>> result("Cn1cnnc1C(F)[C@@](C)(F)c1cccc(N2Cc3c(cccc3C(F)(F)F)C2=O)c1 (stereo in doubt) [Compound 478b]")
"5.52 to 6.00"
>>> result("Cn1cnnc1CC(C)(C)c1cccc(NC(=O)c2ccnc(C(F)(F)F)n2)c1")
"6.52 to 7.00"

Which measured pIC50 value corresponds to `Cc1conc1CC1(c2cccc(NC(=O)c3cc(CN4CCC5(CC5)C4)cc(C4CC4)n3)c2)COC1` ?
> 7.00

* * *

Test system: T-cell
Test: IL-2 secretion from T-cells co-stimulated with anti-CD3 and anti-CD28 antibody (Biological Example 2)
Format: cell-based, human
Conditions: Homo sapiens, T-cell, 4 μM compound; primary human total T-cells; baseline = anti-CD3/anti-CD28 stimulated cells without inhibitor; read-out: IL-2 secretion, Anti-CD3/Anti-CD28 stimulation, fold change over baseline
Entries and their fold induction at 4 µM

>>> result("Cc1c[nH]nc1-c1cc2c(c(C(F)(F)F)c1)CN(c1cccc([C@H](C)Cc3nncn3C)c1)C2=O")
"> 7.5"

Which measured fold induction at 4 µM value corresponds to `Cn1cnnc1CC(C)(C)c1cccc(N2Cc3c(cc(C4CC4)cc3C(F)(F)F)C2=O)c1` ?
5 to 7.5

Moving on to `C[C@H](Cc1nncn1C)c1cccc(N2Cc3c(cc(CN4C[C@@H](F)[C@@H](O)C4)cc3C(F)(F)F)C2=O)c1`
> 7.5

Moving on to Cn1cnnc1[C@H](F)[C@@](C)(F)c1cccc(N2Cc3c(cc(C4CC4)cc3C(F)(F)F)C2=O)c1 (stereo in doubt)
1.01 to 2.5
